System: RS4;11 (BCL-2 dependent acute lymphoblastic leukemia cell line)
Experiment: RS4;11 Cell Proliferation Assay
Format: cell-based
Conditions: Homo sapiens, RS4-11, RS4;11 cells, read-out: Cellular proliferation assay (IC50, nM) RS4
Threshold-based label: IC50 under 0.2 nM gives yes (1), IC50 not under 0.2 nM gives no (0).

>>> label("COc1cc(CN2CCN(C3CC4(C3)CN(c3ccc(C(=O)NS(=O)(=O)c5ccc(NC[C@H]6CC[C@](C)(O)CC6)c([N+](=O)[O-])c5)c(Oc5cnc6[nH]ccc6c5)c3)C4)[C@H](c3ccccc3C(C)C)C2)cnc1OC")
"yes (1)"
>>> label("CC(C)c1ccccc1C1CN(CC23CC(C2)C3)CCN1C1CC2(CCN(c3ccc(C(=O)NS(=O)(=O)c4ccc(NC[C@H]5CC[C@](C)(O)CC5)c([N+](=O)[O-])c4)c(Oc4cnc5[nH]ccc5c4)c3)CC2)C1 (some centres unmarked)")
"no (0)"
>>> label("[2H]C([2H])([2H])Oc1ccc(CN2CCN(C3CC4(C3)CN(c3ccc(C(=O)NS(=O)(=O)c5ccc(NC[C@H]6CC[C@](C)(O)CC6)c([N+](=O)[O-])c5)c(Oc5cnc6[nH]cc(F)c6c5)c3)C4)[C@H](c3ccccc3C(C)C)C2)cc1OC([2H])([2H])[2H]")
"yes (1)"
>>> label("CC(C)c1ccccc1C1CN(Cc2ccc3c(c2)CCCO3)CCN1C1CC2(CCN(c3ccc(C(=O)NS(=O)(=O)c4ccc(NC[C@H]5CC[C@](C)(O)CC5)c([N+](=O)[O-])c4)c(Oc4cnc5[nH]ccc5c4)c3)CC2)C1 (some centres unmarked)")
"no (0)"
>>> label("COc1ccc(CN2CCN(C3CC4(CCN(c5ccc(C(=O)NS(=O)(=O)c6ccc(NC[C@H]7CC[C@](C)(O)CC7)c([N+](=O)[O-])c6)c(Oc6cnc7[nH]ccc7c6)c5)CC4)C3)C(c3ccccc3C(C)C)C2)c2c1OCCO2 (some centres unmarked)")
"no (0)"
>>> label("COc1cc(CN2CCN(C3CC4(C3)CN(c3ccc(C(=O)NS(=O)(=O)c5ccc(NCC6CCOCC6)c([N+](=O)[O-])c5)c(Oc5cnc6[nH]ccc6c5)c3)C4)[C@H](c3ccccc3C(C)C)C2)ccc1C1CC1")
"no (0)"
>>> label("COc1ccc(CN2CCN(C3CC4(CCN(c5ccc(C(=O)NS(=O)(=O)c6cc7c(c([N+](=O)[O-])c6)N[C@H](C[C@H]6CC[C@H](O)CC6)CO7)c(Oc6cnc7[nH]ccc7c6)c5)CC4)C3)[C@H](c3ccccc3C(C)C)C2)cc1")
"yes (1)"
>>> label("CC(C)c1ccccc1C1CN(CC2CCOc3ccccc32)CCN1C1CC2(CCN(c3ccc(C(=O)NS(=O)(=O)c4ccc(NC[C@H]5CC[C@](C)(O)CC5)c([N+](=O)[O-])c4)c(Oc4cnc5[nH]ccc5c4)c3)CC2)C1 (some centres unmarked)")
"no (0)"

###

Biological target: Recombinant human Bcl-2 protein (Homo sapiens (Human))
Sequence (P10415 whole entry): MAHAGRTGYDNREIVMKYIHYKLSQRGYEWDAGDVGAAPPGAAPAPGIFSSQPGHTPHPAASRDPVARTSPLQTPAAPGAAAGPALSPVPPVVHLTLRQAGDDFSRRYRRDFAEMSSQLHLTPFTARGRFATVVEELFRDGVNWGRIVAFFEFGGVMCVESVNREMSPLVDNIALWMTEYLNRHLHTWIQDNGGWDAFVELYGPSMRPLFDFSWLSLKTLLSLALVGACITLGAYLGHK
Test: Bcl-2 TR-FRET Assay
Type: binding
Details: wild type Bcl-2; unit inferred; read-out: Bcl-2 WT
Threshold-based label: IC50 under 0.2 nM gives 1.0, IC50 not under 0.2 nM gives 0.0.

>>> label("COc1ccc(CN2CCN(C3CC4(C3)CN(c3ccc(C(=O)NS(=O)(=O)c5ccc(NC[C@H]6CC[C@](C)(O)CC6)c([N+](=O)[O-])c5)c(Oc5cnc6[nH]ccc6c5)c3)C4)[C@H](c3ccccc3C(C)C)C2)cc1OC")
1.0
>>> label("C#Cc1ccc(CN2CCN(C3CC4(CCN(c5ccc(C(=O)NS(=O)(=O)c6ccc(NC[C@H]7CC[C@](C)(O)CC7)c([N+](=O)[O-])c6)c(Oc6cnc7[nH]ccc7c6)c5)CC4)C3)C(c3ccccc3C(C)C)C2)cc1OC (some centres unmarked)")
0.0
>>> label("COc1cc(CN2CCN(C3CC4(CCN(c5ccc(C(=O)NS(=O)(=O)c6ccc(NC[C@H]7CC[C@](C)(O)CC7)c([N+](=O)[O-])c6)c(Oc6cnc7[nH]cc(F)c7c6)c5)CC4)C3)[C@H](c3ccccc3C(C)C)C2)cc2c1OCC2")
1.0
>>> label("CC(C)c1ccccc1[C@@H]1CN(Cc2ccnc3c2OCC(C)(C)O3)CCN1C1CC2(C1)CN(c1ccc(C(=O)NS(=O)(=O)c3ccc(NC[C@H]4CC[C@](C)(O)CC4)c([N+](=O)[O-])c3)c(Oc3cnc4[nH]cc(F)c4c3)c1)C2")
1.0
>>> label("COc1cc(CN2CCN(C3CC4(C3)CN(c3ccc(C(=O)NS(=O)(=O)c5ccc(NC[C@H]6CC[C@](C)(O)CC6)c([N+](=O)[O-])c5)c(Oc5cnc6[nH]ccc6c5)c3)C4)[C@H](c3ccccc3C(C)C)C2)cc2ccoc12")
1.0
>>> label("CC(C)c1ccccc1C1CN(Cc2ccc3sccc3c2)CCN1C1CC2(CCN(c3ccc(C(=O)NS(=O)(=O)c4ccc(NC[C@H]5CC[C@](C)(O)CC5)c([N+](=O)[O-])c4)c(Oc4cnc5[nH]ccc5c4)c3)CC2)C1 (some centres unmarked)")
0.0
>>> label("COc1cc(CN2CCN(C3CC4(CCN(c5ccc(C(=O)NS(=O)(=O)c6ccc(NC[C@H]7CC[C@](C)(O)CC7)c([N+](=O)[O-])c6)c(Oc6cnc7[nH]ccc7c6)c5)CC4)C3)[C@H](c3ccccc3C(C)C)C2)cc2c1OCCC2")
1.0
